biological target: UniProtKB P30305; experiment: Cdc25B catalytic domain inhibitors, dose response, biochemical, 25 mM DTT, catalase, probe assessment (AID 669)
pIC50: −log10 of the molar value.
value-kind: pIC50

input: Any idea what pIC50 came out for COc1cccc2c(C)c(C(=O)O)[nH]c12 on UniProtKB P30305?
output: 4.94

====

biological target: M-phase inducer phosphatase 2 (Homo sapiens, UniProt P30305); assay: Cdc25B catalytic domain inhibitors, dose response, biochemical, 25 mM DTT, catalase, probe assessment (AID 669)
Sequence (P30305 whole entry, the tested form may be a part): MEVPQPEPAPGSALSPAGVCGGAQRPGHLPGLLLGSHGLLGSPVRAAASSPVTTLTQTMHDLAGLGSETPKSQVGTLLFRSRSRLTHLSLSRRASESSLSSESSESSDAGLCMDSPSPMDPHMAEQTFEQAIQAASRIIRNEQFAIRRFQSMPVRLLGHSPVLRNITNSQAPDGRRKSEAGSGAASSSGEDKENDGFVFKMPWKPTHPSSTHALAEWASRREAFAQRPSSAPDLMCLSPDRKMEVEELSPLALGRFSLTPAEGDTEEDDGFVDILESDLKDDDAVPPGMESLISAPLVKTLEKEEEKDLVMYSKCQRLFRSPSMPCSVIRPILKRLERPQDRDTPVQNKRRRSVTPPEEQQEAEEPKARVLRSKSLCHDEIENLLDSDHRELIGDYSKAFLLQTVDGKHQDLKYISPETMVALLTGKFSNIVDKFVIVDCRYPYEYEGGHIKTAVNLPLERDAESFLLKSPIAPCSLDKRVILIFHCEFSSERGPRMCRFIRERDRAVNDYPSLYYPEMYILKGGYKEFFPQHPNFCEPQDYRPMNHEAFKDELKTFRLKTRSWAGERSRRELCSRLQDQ
Below, each entry is listed with its recorded IC50.

{"columns": ["molecule", "endpoint-result"],
 "data": [
  ["O=C1C=Cc2ccccc2/C1=C/NC12CN3CCN(CN(C3)C1)C2", "> 50 µM"],
  ["Cn1ncnc2c(=O)n(C)c(=O)nc1-2", "> 50 µM"],
  ["Cc1c(N=c2c(=O)c3ccccc3c2=O)c(=O)n(-c2ccccc2)n1C", "> 50 µM"]
]}

input: Fill in: IC50 of Cc1ccccc1Nc1cc2ccccc2c(O)n1 is ___
output: > 50 µM

input: Now try O=C(O)C1Nc2c(O)cccc2C2C=CCC12 (configuration not stated) .
output: 16 µM

input: Now try COc1cccc2c1NC(C(=O)O)C1CC=CC21 (configuration not stated) .
output: 13.2 µM

input: Now try O=C(NC1(O)C(=O)c2ccccc2C1=O)c1ccccc1 .
output: > 50 µM

input: Now try CCOC(=O)C(C(=O)OCC)c1cc(Br)c2noc3c2c1C(=O)c1ccccc1-3 .
output: > 50 µM

input: Now try Cc1ccc2c(c1C)NC(C(=O)O)C1CC=CC21 (configuration not stated) .
output: 20.5 µM

input: Now try [O-]/[N+](=C\c1ccc(OC(F)F)cc1)c1ccccc1 .
output: > 50 µM

input: Now try N#Cc1c(N2CCCC2)nc(N)c2c(N)nc(N3CCCC3)cc12 .
output: > 50 µM

input: Now try c1ccc(CSc2nnc(-c3ccco3)c(-c3ccco3)n2)cc1 .
output: > 50 µM
